# measurement-target: T1, human pIgR, full-length, on cells (human, UniProt P01833 19-764)
# T1 construct: whole, on cells; Used for the flow cytometry EC50 values (MDCK-hpIgR) and for the transcytosis read-outs; also called hpIgR; cell-surface hpIgR
# T1 sequence (P01833 19-764): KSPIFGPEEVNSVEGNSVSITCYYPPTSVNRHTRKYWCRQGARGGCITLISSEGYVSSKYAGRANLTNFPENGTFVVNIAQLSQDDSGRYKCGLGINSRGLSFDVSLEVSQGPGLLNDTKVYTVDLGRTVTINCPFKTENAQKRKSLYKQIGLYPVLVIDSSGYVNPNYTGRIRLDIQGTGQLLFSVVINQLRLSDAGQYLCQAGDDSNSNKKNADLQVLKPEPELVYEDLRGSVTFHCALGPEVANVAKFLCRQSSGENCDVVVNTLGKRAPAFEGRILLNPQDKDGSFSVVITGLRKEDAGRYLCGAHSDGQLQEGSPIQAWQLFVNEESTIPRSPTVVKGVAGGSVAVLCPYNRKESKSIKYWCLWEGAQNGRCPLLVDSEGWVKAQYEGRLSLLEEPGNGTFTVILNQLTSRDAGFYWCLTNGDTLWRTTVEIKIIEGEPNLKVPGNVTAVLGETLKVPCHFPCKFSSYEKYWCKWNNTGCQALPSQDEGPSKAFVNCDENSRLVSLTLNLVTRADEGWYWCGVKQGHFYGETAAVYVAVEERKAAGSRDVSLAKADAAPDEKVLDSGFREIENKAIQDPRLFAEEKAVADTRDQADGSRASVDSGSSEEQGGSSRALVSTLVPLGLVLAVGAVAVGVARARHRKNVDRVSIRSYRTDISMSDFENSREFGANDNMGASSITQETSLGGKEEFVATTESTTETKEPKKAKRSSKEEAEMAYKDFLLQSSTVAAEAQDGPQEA
# assay-remarks: flow cytometry on MDCK-hpIgR cells; summary table, repeats Table 1
measured-metric: pEC50
pEC50 here: minus log base 10 of the concentration, concentration in moles per litre.

VHH9-linker-mono-Fc protein (Fc fusion, made in CHO cells; also called VHH9-mono-Fc; hpIgR_221) QVQLVESGGGLVQAGGSLRLSCAVSGRTFSTYRMGWFRQAPGKERSFVAAISWSGGSTTYADPVKGRFTISRDNAKNTVYLRMNSLKPEDTAVYYCNDQRGYWGQGTLVTVSSEPKTPKPQPQPQLQPQPNPTTESKSPKSPAPELLGGPSVFLFPPKPKDTLMISRTPEVTCVVVDVSHEDPEVKFNWYVDGVEVHNAKTKPREEQYNSTYRVVSVLTVLHQDWLNGKEYKCKVSNKALPAPIEKTISKAKGQPREPQVYTKPPSREEMTKNQVSLSCLVKGFYPSDIAVEWESNGQPENNYKTTVPVLDSDGSFRLASYLTVDKSRWQQGNVFSCSVMHEALHNHYTQKSLSLSPGK	8.82

Enquiry: I have this binder here, VHH5-linker-mono-Fc protein (Fc fusion, made in CHO cells; also called VHH5-mono-Fc; hpIgR_175) QVQLVESGGGLVQAGGSLRLSCAASGRTFSSYAMGWFRQAPGKEREFVAAITWNGGTTYYADSVKGRFTISRDNAKNTVYLQMNSLKPEDTAVYYCAADPFNQGYWGQGTQVTVSSEPKTPKPQPQPQLQPQPNPTTESKSPKSPAPELLGGPSVFLFPPKPKDTLMISRTPEVTCVVVDVSHEDPEVKFNWYVDGVEVHNAKTKPREEQYNSTYRVVSVLTVLHQDWLNGKEYKCKVSNKALPAPIEKTISKAKGQPREPQVYTKPPSREEMTKNQVSLSCLVKGFYPSDIAVEWESNGQPENNYKTTVPVLDSDGSFRLASYLTVDKSRWQQGNVFSCSVMHEALHNHYTQKSLSLSPGK , and I need its recorded pEC50.
Return: 8.37

Enquiry: Entry VHH6-linker-mono-Fc protein (Fc fusion, made in CHO cells; also called VHH6-mono-Fc; hpIgR_181) EVQLVESGGGLVQAGGSLRLSCAVSGSSVSSDAMGWYRQAPGNQRAWVAFISGGGTTTYADSVKGRFTISRDNTKNTVYLHMNSLKPEDTAVYYCNHPLTSRWGQGTQVTVSSEPKTPKPQPQPQLQPQPNPTTESKSPKSPAPELLGGPSVFLFPPKPKDTLMISRTPEVTCVVVDVSHEDPEVKFNWYVDGVEVHNAKTKPREEQYNSTYRVVSVLTVLHQDWLNGKEYKCKVSNKALPAPIEKTISKAKGQPREPQVYTKPPSREEMTKNQVSLSCLVKGFYPSDIAVEWESNGQPENNYKTTVPVLDSDGSFRLASYLTVDKSRWQQGNVFSCSVMHEALHNHYTQKSLSLSPGK : reported pEC50 = ?
Return: 7.94

Enquiry: # lookup: pEC50 of VHH4-linker-mono-Fc protein (Fc fusion, also called VHH4-mono-Fc; hpIgR_073) EVQVVESGGGLVQAGGSLRLSCAVSGTSVSSNAMGWYRQAPGKQREWVGFIDRIATTTIATSVKGRFAITRDNAKNTVYLQMSGLKPEDTAVYYCNHPLTARWGQGTQVTVSSEPKTPKPQPQPQLQPQPNPTTESKSPKSPAPELLGGPSVFLFPPKPKDTLMISRTPEVTCVVVDVSHEDPEVKFNWYVDGVEVHNAKTKPREEQYNSTYRVVSVLTVLHQDWLNGKEYKCKVSNKALPAPIEKTISKAKGQPREPQVYTKPPSREEMTKNQVSLSCLVKGFYPSDIAVEWESNGQPENNYKTTVPVLDSDGSFRLASYLTVDKSRWQQGNVFSCSVMHEALHNHYTQKSLSLSPGK
Return: 7.48
